FYI, the data here is from patent US20230072683A1.

- TEST_SYSTEM: PI3K-δ (PI3K(p1108/p857) (h)) (Homo sapiens, UniProt O00329)
- Sequence (O00329 whole entry): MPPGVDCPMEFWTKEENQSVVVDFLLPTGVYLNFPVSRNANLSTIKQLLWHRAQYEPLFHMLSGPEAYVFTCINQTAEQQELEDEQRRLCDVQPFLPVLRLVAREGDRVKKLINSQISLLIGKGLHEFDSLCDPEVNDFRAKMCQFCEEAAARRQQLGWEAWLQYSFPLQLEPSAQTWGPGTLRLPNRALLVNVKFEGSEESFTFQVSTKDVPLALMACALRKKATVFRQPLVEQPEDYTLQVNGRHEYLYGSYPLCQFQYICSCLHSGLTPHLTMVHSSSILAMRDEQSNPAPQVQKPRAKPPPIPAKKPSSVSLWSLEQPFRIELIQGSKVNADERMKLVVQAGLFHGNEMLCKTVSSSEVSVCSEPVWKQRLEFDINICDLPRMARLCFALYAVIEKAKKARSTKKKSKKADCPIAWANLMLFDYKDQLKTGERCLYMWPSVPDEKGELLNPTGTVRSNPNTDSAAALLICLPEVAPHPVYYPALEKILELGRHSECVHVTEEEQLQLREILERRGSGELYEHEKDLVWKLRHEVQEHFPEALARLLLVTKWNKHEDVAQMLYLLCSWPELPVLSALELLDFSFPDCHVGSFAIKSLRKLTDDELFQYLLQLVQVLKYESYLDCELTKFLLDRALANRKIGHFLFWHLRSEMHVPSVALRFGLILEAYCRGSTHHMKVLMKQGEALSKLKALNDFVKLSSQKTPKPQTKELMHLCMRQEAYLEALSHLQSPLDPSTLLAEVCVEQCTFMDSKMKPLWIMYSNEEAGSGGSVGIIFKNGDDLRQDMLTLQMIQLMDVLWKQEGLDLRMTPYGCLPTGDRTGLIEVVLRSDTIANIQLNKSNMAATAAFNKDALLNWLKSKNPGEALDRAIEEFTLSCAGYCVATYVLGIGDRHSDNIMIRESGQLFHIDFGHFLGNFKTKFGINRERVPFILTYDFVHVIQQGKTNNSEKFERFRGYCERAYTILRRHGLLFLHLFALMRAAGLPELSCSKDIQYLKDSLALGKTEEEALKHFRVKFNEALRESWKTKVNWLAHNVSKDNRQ
- Sequence (P27986 whole entry partner): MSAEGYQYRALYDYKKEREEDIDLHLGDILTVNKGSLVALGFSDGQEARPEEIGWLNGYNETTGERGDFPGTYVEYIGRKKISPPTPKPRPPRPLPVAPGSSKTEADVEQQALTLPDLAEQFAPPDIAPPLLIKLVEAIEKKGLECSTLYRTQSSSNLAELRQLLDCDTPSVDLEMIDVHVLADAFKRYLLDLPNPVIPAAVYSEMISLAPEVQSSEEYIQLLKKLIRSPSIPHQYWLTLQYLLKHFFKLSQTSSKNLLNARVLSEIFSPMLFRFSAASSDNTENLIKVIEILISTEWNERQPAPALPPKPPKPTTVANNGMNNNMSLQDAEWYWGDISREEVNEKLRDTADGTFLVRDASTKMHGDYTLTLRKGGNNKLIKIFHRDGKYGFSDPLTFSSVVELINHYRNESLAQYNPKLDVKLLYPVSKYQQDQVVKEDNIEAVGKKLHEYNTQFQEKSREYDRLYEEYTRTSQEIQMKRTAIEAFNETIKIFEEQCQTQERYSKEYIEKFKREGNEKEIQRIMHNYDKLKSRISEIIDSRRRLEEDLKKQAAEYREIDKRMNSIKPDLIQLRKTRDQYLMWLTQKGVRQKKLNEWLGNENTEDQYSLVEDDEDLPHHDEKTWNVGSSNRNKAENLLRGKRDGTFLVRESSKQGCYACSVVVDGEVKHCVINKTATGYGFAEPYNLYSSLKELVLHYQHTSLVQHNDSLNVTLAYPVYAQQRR
- EXPERIMENT_SUMMARY: Evaluation of inhibitory activity against PI3K-δ (HTRF kinase assay)
- Assay type: biochemical
- EXPERIMENTAL_CONTEXT: compound concentration 0.01 μM; read-out: EXP_VALUE(% Inhibition) PI3K-δ 0.01 μM
ASSAY_METRIC: inhibition at 0.01 µM (%)
State the answer as a number, implicitly in %.

Some solved cases for reference:
1) C[C@H](Nc1ncnc2[nH]ccc(=O)c12)c1c(Cl)c2cccc(-c3cccc4c3cnn4C)c2c(=O)n1-c1ccccc1 :: 85
2) C[C@H](Nc1ncnc2[nH]ccc(=O)c12)c1c(Cl)c2cccc(-c3cnc(C(F)(F)F)nc3)c2c(=O)n1-c1ccccc1 :: 77
3) C[C@H](Nc1ncnc2[nH]ccc(=O)c12)c1c(Cl)c2cccc(-c3ccc(C(F)(F)F)cc3Cl)c2c(=O)n1-c1ccccc1 :: 75
4) CC(C)Oc1cc(-c2cccc3c(Cl)c([C@H](C)Nc4ncnc5[nH]ccc(=O)c45)n(-c4ccccc4)c(=O)c23)ccn1 :: 83

The reported inhibition at 0.01 µM of the compound C[C@H](Nc1ncnc2[nH]ccc(=O)c12)c1c(Cl)c2cccc(-c3ccc(C(F)(F)F)nc3)c2c(=O)n1-c1ccccc1 was 101

###

- TEST_SYSTEM: PI3K-δ (PI3K(p1108/p857) (h)) (Homo sapiens, UniProt O00329)
- EXPERIMENT_SUMMARY: Evaluation of inhibitory activity against PI3K-δ (HTRF kinase assay)
- Format: biochemical
- EXPERIMENTAL_CONTEXT: compound concentration 0.01 μM; read-out: EXP_VALUE(% Inhibition) PI3K-δ 0.01 μM
- Experimental: <Experimental Example 1> Evaluation of Inhibitory Activity Properties Against PI3K-δ […] A detection buffer comprising Eu (europium)-labelled anti-GST monoclonal antibody, GST-tagged GRP1 PH domain and streptavidin-allophycocyanin was added. A plate was read in a time-resolved fluorescence mode and a homogeneous time-resolved fluorescence (HTRF) signal was determined according to HTRF=10000×(Em 665 nm/Em 620 nm).
Kindly return t if reported inhibition at 0.01 µM is no lower than 70%; return f if it is lower.

1. Cc1ccc(-c2cccc3c(Br)c([C@H](C)Nc4ncnc5[nH]ccc(=O)c45)n(-c4ccccc4)c(=O)c23)cn1 [Example 17] :: t
2. CC(C)c1ncncc1-c1cccc2c(Cl)c([C@H](C)Nc3ncnc4[nH]ccc(=O)c34)n(-c3ccccc3)c(=O)c12 [Example 215] :: t
3. C[C@H](Nc1ncnc2[nH]ccc(=O)c12)c1c(Cl)c2cccc(C(C)(C)O)c2c(=O)n1-c1ccccc1 [Example 360] :: f
4. C[C@H](Nc1ncnc2[nH]ccc(=O)c12)c1c(Cl)c2cccc(C(=O)NC(C)(C)CO)c2c(=O)n1-c1ccccc1 [Example 284] :: f
5. C[C@H](Nc1ncnc2[nH]ccc(=O)c12)c1c(Cl)c2cccc(-c3ccc(N)cc3)c2c(=O)n1-c1ccccc1 [Example 94] :: t

Can C[C@H](Nc1ncnc2[nH]ccc(=O)c12)c1c(Cl)c2cccc(C#Cc3ccncc3)c2c(=O)n1-c1ccccc1 [Example 306] be said to have inhibition at 0.01 µM at or above 70%?
f

Can C[C@H](Nc1ncnc2[nH]ccc(=O)c12)c1c(Cl)c2cccc(-c3cc(Cl)ccc3F)c2c(=O)n1-c1ccccc1 [Example 140] be said to have inhibition at 0.01 µM at or above 70%?
f

Can C[C@H](Nc1ncnc2[nH]ccc(=O)c12)c1c(Cl)c2cccc(-c3cnc4nonc4c3)c2c(=O)n1-c1ccccc1 [Example 235] be said to have inhibition at 0.01 µM at or above 70%?
t

###

- TEST_SYSTEM: PI3K-δ (PI3K(p1108/p857) (h)) (Homo sapiens, UniProt O00329)
- EXPERIMENT_SUMMARY: Evaluation of inhibitory activity against PI3K-δ (HTRF kinase assay)
- Assay type: biochemical
- EXPERIMENTAL_CONTEXT: compound concentration 0.01 μM; read-out: EXP_VALUE(% Inhibition) PI3K-δ 0.01 μM
ASSAY_METRIC: inhibition at 0.01 µM (%)
State the answer as a number, implicitly in %.

Some solved cases for reference:
1) C[C@H](Nc1ncnc2[nH]ccc(=O)c12)c1c(Cl)c2cccc(N3CCc4ccccc4C3)c2c(=O)n1-c1ccccc1 [Example 7] :: 77
2) Cc1cc(-c2cccc3c(Cl)c([C@H](C)Nc4ncnc5[nH]ccc(=O)c45)n(-c4ccccc4)c(=O)c23)n[nH]1 [Example 234] :: 85

Let us move to another entry and its inhibition at 0.01 µM.
The reported inhibition at 0.01 µM of the molecule C[C@H](Nc1ncnc2[nH]ccc(=O)c12)c1c(Br)c2cccc(-c3cnn(C)c3)c2c(=O)n1-c1ccccc1 [Example 19] was 89

###

Entries annotated with measured inhibition at 0.01 µM
- TEST_SYSTEM: DNA-PK(h) (Homo sapiens)
- EXPERIMENT_SUMMARY: Evaluation of inhibitory activity against DNA-PK (HTRF kinase assay, GST-cMyc-p53 substrate)
- Assay type: biochemical
- EXPERIMENTAL_CONTEXT: compound concentration 0.01 μM; read-out: EXP_VALUE(% Inhibition) DNA-PK(h) 0.01 μM
State the answer as a number, implicitly in %.

The reported inhibition at 0.01 µM of the compound C[C@H](Nc1ncnc2[nH]ccc(=O)c12)c1c(Cl)c2cccc(-c3ccc(S(C)(=O)=O)cc3)c2c(=O)n1-c1ccccc1 [Example 165] was 91

The reported inhibition at 0.01 µM of the compound C[C@H](Nc1ncnc2[nH]ccc(=O)c12)c1c(Cl)c2cccc(-c3cccc(F)c3)c2c(=O)n1-c1ccccc1 [Example 123] was 58

The reported inhibition at 0.01 µM of the compound C[C@H](Nc1ncnc2[nH]ccc(=O)c12)c1c(Cl)c2cccc(-c3ccc(C(C)(C)C)nc3)c2c(=O)n1-c1ccccc1 [Example 34] was 56

###

- TEST_SYSTEM: PI3K-δ (PI3K(p1108/p857) (h)) (Homo sapiens, UniProt O00329)
- EXPERIMENT_SUMMARY: Evaluation of inhibitory activity against PI3K-δ (HTRF kinase assay)
- Format: biochemical
- EXPERIMENTAL_CONTEXT: compound concentration 0.1 μM; read-out: EXP_VALUE(% Inhibition) PI3K-δ 0.1 μM
Kindly return 1 (yes) if reported inhibition at 0.1 µM is no lower than 70%; return 0 (no) if it is lower.

Some entries whose results are on file:
1) C[C@H](Nc1ncnc2[nH]ccc(=O)c12)c1c(Cl)c2cccc(C#Cc3cncs3)c2c(=O)n1-c1ccccc1 [Example 313] :: 0 (no)
2) C=Cc1cccc2c(Cl)c([C@H](C)Nc3ncnc4[nH]ccc(=O)c34)n(-c3ccccc3)c(=O)c12 [Example 142] :: 1 (yes)
3) C[C@H](Nc1ncnc2[nH]ccc(=O)c12)c1c(Cl)c2cccc(N3CCC(NC(=O)OC(C)(C)C)CC3)c2c(=O)n1-c1ccccc1 [Example 77] :: 1 (yes)

Can C[C@H](Nc1ncnc2[nH]ccc(=O)c12)c1c(Cl)c2cccc(NC3CCOC3)c2c(=O)n1-c1ccccc1 (stereo partly drawn) [Example 331] be said to have inhibition at 0.1 µM at or above 70%?
1 (yes)

Can C[C@H](Nc1ncnc2[nH]ccc(=O)c12)c1c(Cl)c2cccc(C#Cc3nccs3)c2c(=O)n1-c1ccccc1 [Example 312] be said to have inhibition at 0.1 µM at or above 70%?
1 (yes)

###

- TEST_SYSTEM: DNA-PK(h) (Homo sapiens, UniProt P78527)
- EXPERIMENT_SUMMARY: Evaluation of inhibitory activity against DNA-PK (HTRF kinase assay, GST-cMyc-p53 substrate)
- Format: biochemical
- EXPERIMENTAL_CONTEXT: compound concentration 0.1 μM; read-out: EXP_VALUE(% Inhibition) DNA-PK(h) 0.1 μM
Entries annotated with measured inhibition at 0.1 µM
State the answer as a number, implicitly in %.

Some solved cases for reference:
1. Cc1c(F)cccc1-c1cccc2c(Cl)c([C@H](C)Nc3ncnc4[nH]ccc(=O)c34)n(-c3ccccc3)c(=O)c12 [Example 109] :: 65
2. C[C@H](Nc1ncnc2[nH]ccc(=O)c12)c1c(Cl)c2cccc(C#Cc3ccccn3)c2c(=O)n1-c1ccccc1 [Example 308] :: 70.3
3. C[C@H](Nc1ncnc2[nH]ccc(=O)c12)c1c(Cl)c2cccc(-c3ccc(C4CCN(C)CC4)cc3)c2c(=O)n1-c1ccccc1 [Example 130] :: 102
4. C[C@H](Nc1ncnc2[nH]ccc(=O)c12)c1c(Cl)c2cccc(C#Cc3cccs3)c2c(=O)n1-c1ccccc1 [Example 304] :: 71
5. C[C@H](Nc1ncnc2[nH]ccc(=O)c12)c1c(Cl)c2cccc(-c3ccc(N)cc3)c2c(=O)n1-c1ccccc1 [Example 94] :: 100
6. C[C@H](Nc1ncnc2[nH]ccc(=O)c12)c1c(Cl)c2cccc(/C=C/c3ccccc3)c2c(=O)n1-c1ccccc1 [Example 70] :: 23.6
7. C[C@H](Nc1ncnc2[nH]ccc(=O)c12)c1c(Cl)c2cccc(NC3CCOC3)c2c(=O)n1-c1ccccc1 (stereo partly shown) [Example 331] :: 76
8. COc1cc(-c2cccc3c(Cl)c([C@H](C)Nc4ncnc5[nH]ccc(=O)c45)n(-c4ccccc4)c(=O)c23)cc(OC)c1OC [Example 103] :: 101

The reported inhibition at 0.1 µM of the compound CC(C)C1CCN(c2cccc3c(Cl)c([C@H](C)Nc4ncnc5[nH]ccc(=O)c45)n(-c4ccccc4)c(=O)c23)CC1 [Example 76] was 20

The reported inhibition at 0.1 µM of the compound C[C@H](Nc1ncnc2[nH]ccc(=O)c12)c1c(Cl)c2cccc(-c3ccc(F)cc3)c2c(=O)n1-c1ccccc1 [Example 63] was 84

The reported inhibition at 0.1 µM of the compound CCOC(=O)c1cccc2c(Cl)c([C@H](C)Nc3ncnc4[nH]ccc(=O)c34)n(-c3ccccc3)c(=O)c12 [Example 292] was 99

The reported inhibition at 0.1 µM of the compound C[C@H](Nc1ncnc2[nH]ccc(=O)c12)c1c(Cl)c2cccc(N(C)Cc3ccccc3)c2c(=O)n1-c1ccccc1 [Example 319] was 25

The reported inhibition at 0.1 µM of the compound C[C@H](Nc1ncnc2[nH]ccc(=O)c12)c1c(Cl)c2cccc(-c3ccc(N(C)C)cc3)c2c(=O)n1-c1ccccc1 [Example 72] was 96

The reported inhibition at 0.1 µM of the compound C[C@H](Nc1ncnc2[nH]ccc(=O)c12)c1c(Cl)c2cccc(Sc3ccncc3)c2c(=O)n1-c1ccccc1 [Example 370] was 76

The reported inhibition at 0.1 µM of the compound C[C@H](Nc1ncnc2[nH]ccc(=O)c12)c1c(Cl)c2cccc(-c3cc(O)cc(F)c3)c2c(=O)n1-c1ccccc1 [Example 108] was 66

The reported inhibition at 0.1 µM of the compound C[C@H](Nc1ncnc2[nH]ccc(=O)c12)c1c(Cl)c2cccc(N3CCCC3O)c2c(=O)n1-c1ccccc1 (stereo partly shown) [Example 339] was 52

The reported inhibition at 0.1 µM of the compound C[C@H](Nc1ncnc2[nH]ccc(=O)c12)c1c(Cl)c2cccc(-c3ncon3)c2c(=O)n1-c1ccccc1 [Example 351] was 89

The reported inhibition at 0.1 µM of the compound Cc1ccc(Oc2cccc3c(Cl)c([C@H](C)Nc4ncnc5[nH]ccc(=O)c45)n(-c4ccccc4)c(=O)c23)cc1 [Example 367] was 67

The reported inhibition at 0.1 µM of the compound CC(C)Oc1ccc(-c2cccc3c(Cl)c([C@H](C)Nc4ncnc5[nH]ccc(=O)c45)n(-c4ccccc4)c(=O)c23)cn1 [Example 101] was 94
